target: HCK (human); assay: KINOMEscan competition binding; details: compound 10.0 µM
readout: kinase still bound, per cent of control

1) Cc1cc(Nc2cc(N3CCN(C)CC3)nc(Sc3ccc(NC(=O)C4CC4)cc3)n2)[nH]n1: no effect (inactive)
2) NC(=O)c1ccc(Nc2cc(-c3ccc(F)cc3)[nH]n2)cc1: no effect (inactive)
3) Cc1ccc(NC(=O)c2cccc(N3CCCCC3)c2)cc1-c1ccc(C(=O)NCC2CC2)cc1: no effect (inactive)
4) NC(=O)c1ccc(-c2cc(C(N)=O)c(N)c(-c3ccc(S(N)(=O)=O)cc3)c2)cc1: no effect (inactive)
5) CCS(=O)(=O)Nc1ccc2c(c1)[C@H](/C(=N/c1ccc(CN3CCCCC3)cc1)c1ccccc1)C(=O)N2: 0%
6) CC(=O)c1c(-c2ccncc2)[nH]c(-c2ccncc2)c1C: no effect (inactive)
7) N#Cc1ccc(-c2cnc3[nH]cc(NC(=O)c4cccnc4)c3c2)cc1: no effect (inactive)
8) O=C1Nc2ccccc2/C1=C/c1ccc[nH]1: no effect (inactive)

Let us move to another entry and its kinase still bound, per cent of control.
Exercise: Name the reported kinase still bound, per cent of control value associated with the molecule `c1ccc(-c2n[nH]cc2-c2ccnc3ccccc23)nc1`
Solution: no effect (inactive)
